EXPERIMENTAL SYSTEM: scFv-E040-msFcγ2c
I'd appreciate it if you could supply EC50 values for the items below.
Please give a number only; it is taken to be in µM.

EC50 reading for SLLTEVETPIRNEWGCRCNDSSD (modifications not checked) [M2e consensus peptide (free, soluble)] : 21.3

Recorded result, SLLTEVETPIRNEWGC (modifications not checked) [M2e-short] , EC50: 35.5

All values here come from patent US20110268740A1.
